# Species on record: Rattus norvegicus
# assay.explanation: Relative affinity for dopamine transporter and muscarinic acetylcholine M1 receptor
Kindly supply the reported Selectivity values for the records listed here.
Just the number, please.

Which Selectivity value belongs to CC(C)COC(=O)[C@H]1CC2C[C@H](OC(c3ccc(F)cc3)c3ccc(F)cc3)CC1N2C (stereo partly drawn) ? 5

Item under review: CN1C2CC(OC(c3ccc(F)cc3)c3ccc(F)cc3)CC1[C@@H](C(=O)O)C2 (stereo partly drawn) . Reported Selectivity? 8

Give the measured Selectivity of CN1C2C[C@H](OC(c3ccc(F)cc3)c3ccc(F)cc3)CC1[C@@H](C(=O)Oc1ccccc1)C2 (stereo partly drawn) . 5

====

# measured.target: Muscarinic acetylcholine receptor M1 (Rattus norvegicus)
# Sequence (P08482 whole entry): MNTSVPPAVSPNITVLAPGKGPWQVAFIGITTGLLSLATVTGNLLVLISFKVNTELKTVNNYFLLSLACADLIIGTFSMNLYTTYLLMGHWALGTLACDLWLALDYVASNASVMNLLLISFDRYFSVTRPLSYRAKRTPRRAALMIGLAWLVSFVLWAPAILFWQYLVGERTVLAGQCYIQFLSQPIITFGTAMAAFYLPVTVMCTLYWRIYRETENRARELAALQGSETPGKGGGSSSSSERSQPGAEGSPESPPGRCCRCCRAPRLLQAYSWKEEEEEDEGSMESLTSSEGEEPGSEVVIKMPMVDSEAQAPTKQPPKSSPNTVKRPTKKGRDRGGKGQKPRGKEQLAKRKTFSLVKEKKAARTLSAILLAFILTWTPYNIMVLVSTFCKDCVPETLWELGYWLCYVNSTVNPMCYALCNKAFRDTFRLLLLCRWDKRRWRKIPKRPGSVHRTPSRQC
Please provide measured log10(Ki) for the entries that follow.
Friendly reminder: values = log10 of Ki, unit µM.

Requested read-out: log10(Ki). Entry: O=C(Oc1ccccc1)[C@H]1CC2C[C@H](OC(c3ccc(F)cc3)c3ccc(F)cc3)CC1N2 (stereo partly drawn) 0.93

Fill in the blank: the reported log10(Ki) of CCOC(=O)[C@H]1CC2C[C@H](OC(c3ccc(F)cc3)c3ccc(F)cc3)CC1N2C (stereo partly drawn) is ____. -0.85

Can you look up the measured log10(Ki) of COC(=O)[C@H]1CC2C[C@H](OC(c3ccc(F)cc3)c3ccc(F)cc3)CC1N2C (stereo partly drawn) for me? -0.36

Endpoint output: log10(Ki) of CN1C2C[C@H](OC(c3ccc(F)cc3)c3ccc(F)cc3)CC1[C@@H](C(=O)OCc1ccccc1)C2 (stereo partly drawn) . Value? 0.36

Look up log10(Ki) for this compound: COC(=O)[C@@H]1C2CC[C@@H](C[C@@H]1OC(=O)c1ccccc1)N2C (single isomer, unassigned) 1.79

What does the data say about its log10(Ki)? Entry: CC(C)OC(=O)[C@H]1CC2C[C@H](OC(c3ccc(F)cc3)c3ccc(F)cc3)CC1N2C (stereo partly drawn) -0.11

Can you look up the measured log10(Ki) of CN1C2C[C@H](OC(c3ccc(F)cc3)c3ccc(F)cc3)CC1[C@@H](C(=O)OCCc1ccccc1)C2 (stereo partly drawn) for me? 0.54

log10(Ki) lookup needed for CN1C2CC(OC(c3ccc(F)cc3)c3ccc(F)cc3)CC1[C@@H](C(=O)O)C2 (stereo partly drawn) , thanks. -1.33

====

Could you please report measured Selectivity for the items listed next?
# measured.target: Monoamine transporters; serotonin & dopamine (Rattus norvegicus) (UniProt P31652+P23977)
# Sequence (P23977 whole entry, looked up): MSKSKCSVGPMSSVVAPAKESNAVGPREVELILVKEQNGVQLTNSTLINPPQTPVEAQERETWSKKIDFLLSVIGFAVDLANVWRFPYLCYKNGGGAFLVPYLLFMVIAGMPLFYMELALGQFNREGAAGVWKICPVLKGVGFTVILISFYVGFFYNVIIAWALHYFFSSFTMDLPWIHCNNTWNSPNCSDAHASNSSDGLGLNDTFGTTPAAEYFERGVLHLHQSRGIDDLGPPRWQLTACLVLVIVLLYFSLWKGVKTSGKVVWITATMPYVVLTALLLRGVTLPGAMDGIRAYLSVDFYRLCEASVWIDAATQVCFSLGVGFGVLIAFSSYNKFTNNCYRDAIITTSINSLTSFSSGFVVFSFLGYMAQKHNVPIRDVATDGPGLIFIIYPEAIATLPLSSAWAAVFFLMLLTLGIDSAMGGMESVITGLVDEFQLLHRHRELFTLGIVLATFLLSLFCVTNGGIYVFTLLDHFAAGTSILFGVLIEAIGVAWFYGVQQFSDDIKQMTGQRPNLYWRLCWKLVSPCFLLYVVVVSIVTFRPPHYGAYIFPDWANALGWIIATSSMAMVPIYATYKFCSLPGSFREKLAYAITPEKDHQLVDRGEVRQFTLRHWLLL
# Sequence (P31652 whole entry, looked up): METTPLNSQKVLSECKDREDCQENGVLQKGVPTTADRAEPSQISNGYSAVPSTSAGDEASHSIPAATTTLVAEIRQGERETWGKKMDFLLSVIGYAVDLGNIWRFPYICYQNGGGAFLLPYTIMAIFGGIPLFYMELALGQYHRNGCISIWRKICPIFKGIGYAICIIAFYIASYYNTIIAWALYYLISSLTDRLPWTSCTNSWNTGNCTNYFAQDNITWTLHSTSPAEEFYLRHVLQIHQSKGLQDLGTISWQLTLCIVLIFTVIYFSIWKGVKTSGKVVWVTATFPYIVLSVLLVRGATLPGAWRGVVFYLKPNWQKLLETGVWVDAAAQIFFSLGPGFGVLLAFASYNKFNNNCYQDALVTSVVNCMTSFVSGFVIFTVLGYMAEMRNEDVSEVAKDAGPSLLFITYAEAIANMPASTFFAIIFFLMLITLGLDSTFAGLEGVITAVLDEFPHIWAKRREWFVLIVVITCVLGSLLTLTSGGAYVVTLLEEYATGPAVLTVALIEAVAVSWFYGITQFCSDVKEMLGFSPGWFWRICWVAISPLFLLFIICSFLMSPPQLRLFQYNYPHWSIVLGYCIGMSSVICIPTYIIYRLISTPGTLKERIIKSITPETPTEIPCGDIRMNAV
# assay.explanation: Relative affinity for dopamine and serotonin transporters
# Format: protein assay
Answer using only a numeral; do not append any unit.

Param readout = Selectivity; param system = Monoamine transporters; serotonin & dopamine (Rattus norvegicus) (UniProt P31652+P23977); param query = CC(C)COC(=O)[C@H]1CC2C[C@H](OC(c3ccc(F)cc3)c3ccc(F)cc3)CC1N2C (some centres not stated) ; response: value 54

Lab request: please report Selectivity under test system Monoamine transporters; serotonin & dopamine (Rattus norvegicus) (UniProt P31652+P23977) for CN1C2C[C@H](OC(c3ccc(F)cc3)c3ccc(F)cc3)CC1[C@@H](C(=O)OCc1ccccc1)C2 (some centres not stated) 49

Under Monoamine transporters; serotonin & dopamine (Rattus norvegicus) (UniProt P31652+P23977): Selectivity value of COC(=O)[C@H]1CC2C[C@H](OC(c3ccc(F)cc3)c3ccc(F)cc3)CC1N2C (some centres not stated) ? 289

Please provide the recorded Selectivity for COS(=O)(=O)[C@H]1CC2C[C@H](OC(c3ccc(F)cc3)c3ccc(F)cc3)CC1N2C (some centres not stated) , tested on Monoamine transporters; serotonin & dopamine (Rattus norvegicus) (UniProt P31652+P23977). 170

What measured Selectivity is associated with CN1C2C[C@H](OC(c3ccc(F)cc3)c3ccc(F)cc3)CC1[C@@H](C(=O)OCCc1ccccc1)C2 (some centres not stated) on Monoamine transporters; serotonin & dopamine (Rattus norvegicus) (UniProt P31652+P23977)? 47

Item: CN1C2CC(OC(c3ccc(F)cc3)c3ccc(F)cc3)CC1[C@@H](O)C2 (some centres not stated) Test system: Monoamine transporters; serotonin & dopamine (Rattus norvegicus) (UniProt P31652+P23977) Read-out: Selectivity Value: ? 1450

Value wanted: Selectivity (Monoamine transporters; serotonin & dopamine (Rattus norvegicus) (UniProt P31652+P23977)) of entry CC(C)OC(=O)[C@H]1CC2C[C@H](OC(c3ccc(F)cc3)c3ccc(F)cc3)CC1N2C (some centres not stated) 98

Value wanted: Selectivity (Monoamine transporters; serotonin & dopamine (Rattus norvegicus) (UniProt P31652+P23977)) of entry CN1C2C[C@H](OC(c3ccc(F)cc3)c3ccc(F)cc3)CC1[C@@H](C(=O)Oc1ccccc1)C2 (some centres not stated) 35

Item: CN1C2CC(OC(c3ccc(F)cc3)c3ccc(F)cc3)CC1[C@H](O)C2 (some centres not stated) Test system: Monoamine transporters; serotonin & dopamine (Rattus norvegicus) (UniProt P31652+P23977) Read-out: Selectivity Value: ? 374

Any idea what Selectivity came out for CCOC(=O)[C@H]1CC2C[C@H](OC(c3ccc(F)cc3)c3ccc(F)cc3)CC1N2C (some centres not stated) on Monoamine transporters; serotonin & dopamine (Rattus norvegicus) (UniProt P31652+P23977)? 186

# returns recorded Selectivity (system: Monoamine transporters; serotonin & dopamine (Rattus norvegicus) (UniProt P31652+P23977)) for O=C(Oc1ccccc1)[C@H]1CC2C[C@H](OC(c3ccc(F)cc3)c3ccc(F)cc3)CC1N2 (some centres not stated) 25

Short answer please: Selectivity, Monoamine transporters; serotonin & dopamine (Rattus norvegicus) (UniProt P31652+P23977), entry CN1C2CC(OC(c3ccc(F)cc3)c3ccc(F)cc3)CC1[C@@H](C(=O)O)C2 (some centres not stated) 1430

====

# Species: Rattus norvegicus
# assay.explanation: Relative affinity for dopamine transporter and muscarinic acetylcholine M1 receptor
So basically: is Selectivity under 8? Then rule met. Not under? Then rule not met.

Lab note: Selectivity threshold 8. Does this compound come in strictly under it? CN1C2C[C@H](OC(c3ccc(F)cc3)c3ccc(F)cc3)CC1[C@@H](C(=O)OCCc1ccccc1)C2 (some centres undefined) rule not met

Could you please tell me whether Selectivity recorded for CN1C2C[C@H](OC(c3ccc(F)cc3)c3ccc(F)cc3)CC1[C@@H](C(=O)OCc1ccccc1)C2 (some centres undefined) is less than 8? rule not met

Would you kindly verify if Selectivity of O=C(Oc1ccccc1)[C@H]1CC2C[C@H](OC(c3ccc(F)cc3)c3ccc(F)cc3)CC1N2 (some centres undefined) is strictly less than 8? rule not met

Lab note: confirm whether the reported Selectivity for this compound is below 8, equality not counting. compound: CN1C2CC(OC(c3ccc(F)cc3)c3ccc(F)cc3)CC1[C@H](O)C2 (some centres undefined) rule met

Would you kindly verify if Selectivity of CC(C)OC(=O)[C@H]1CC2C[C@H](OC(c3ccc(F)cc3)c3ccc(F)cc3)CC1N2C (some centres undefined) is strictly less than 8? rule met

Record CCOC(=O)[C@H]1CC2C[C@H](OC(c3ccc(F)cc3)c3ccc(F)cc3)CC1N2C (some centres undefined) : is its Selectivity strictly below 8? rule met

====

# measured.target: Monoamine transporters; Norepininephrine & dopamine (Rattus norvegicus) (UniProt P23977+Q9WTR4)
# assay.explanation: Relative affinity for dopamine and norepinephrine transporters
# Format: protein assay
measured.metric: Selectivity
# output: bare number, no unit

Return reported Selectivity; argument: CN1C2CC(OC(c3ccc(F)cc3)c3ccc(F)cc3)CC1[C@@H](O)C2 (some centres not stated) 207

Sample CC(C)COC(=O)[C@H]1CC2C[C@H](OC(c3ccc(F)cc3)c3ccc(F)cc3)CC1N2C (some centres not stated) — what was its Selectivity? 45

May I ask what Selectivity has been recorded for CC(C)OC(=O)[C@H]1CC2C[C@H](OC(c3ccc(F)cc3)c3ccc(F)cc3)CC1N2C (some centres not stated) ? 68

Find the recorded Selectivity belonging to CN1C2CC(OC(c3ccc(F)cc3)c3ccc(F)cc3)CC1[C@@H](C(=O)O)C2 (some centres not stated) and report it. 238

What does the data say about its Selectivity? Entry: CN1C2C[C@H](OC(c3ccc(F)cc3)c3ccc(F)cc3)CC1[C@@H](C(=O)Oc1ccccc1)C2 (some centres not stated) 13

Dear colleague, I am looking for the recorded Selectivity of the following compound: CN1C2C[C@H](OC(c3ccc(F)cc3)c3ccc(F)cc3)CC1[C@@H](C(=O)OCCc1ccccc1)C2 (some centres not stated) 33

Recorded Selectivity for CN1C2C[C@H](OC(c3ccc(F)cc3)c3ccc(F)cc3)CC1[C@@H](C(=O)OCc1ccccc1)C2 (some centres not stated) , please? 52

Could you share which Selectivity value was measured for O=C(Oc1ccccc1)[C@H]1CC2C[C@H](OC(c3ccc(F)cc3)c3ccc(F)cc3)CC1N2 (some centres not stated) ? 18

So what's the measured Selectivity for this one? CCOC(=O)[C@H]1CC2C[C@H](OC(c3ccc(F)cc3)c3ccc(F)cc3)CC1N2C (some centres not stated) 49

Which Selectivity value is on record for CN1C2CC(OC(c3ccc(F)cc3)c3ccc(F)cc3)CC1[C@H](O)C2 (some centres not stated) ? 204

Reported Selectivity, compound COC(=O)[C@H]1CC2C[C@H](OC(c3ccc(F)cc3)c3ccc(F)cc3)CC1N2C (some centres not stated) : ____ 121

Find the recorded Selectivity belonging to COS(=O)(=O)[C@H]1CC2C[C@H](OC(c3ccc(F)cc3)c3ccc(F)cc3)CC1N2C (some centres not stated) and report it. 85

Ref: ChEMBL document CHEMBL1146661
